Attribution: the supplement of paper PMC10065799

# targetSystem: Grb2 SH2 (UniProt P62993)
# Sequence (P62993 whole entry, looked up, the tested form may be a part): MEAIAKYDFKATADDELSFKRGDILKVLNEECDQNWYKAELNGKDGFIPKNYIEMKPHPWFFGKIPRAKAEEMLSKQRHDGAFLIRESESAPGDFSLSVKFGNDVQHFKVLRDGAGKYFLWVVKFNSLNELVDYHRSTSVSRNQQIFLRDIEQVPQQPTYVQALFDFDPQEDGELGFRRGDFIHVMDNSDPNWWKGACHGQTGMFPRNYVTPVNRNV
# protocolText: SH2 binding enrichment of the phosphorylated peptide, bacterial display (enrichment ratio); higher = better substrate or ligand; peptides without Tyr show the background;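 also: peptide library displayed on the E. coli surface as eCPX fusions, selected cells deep-sequenced, score is each peptide's frequency after selection divided by its frequency in the input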
Each entry below carries its reported SH2 binding enrichment.
Please respond with just the number, no unit label.

Before answering, review these 2 worked examples.
INSERT INTO results (sequencestring, assaymetric, valueobserved) VALUES
  ('EEQKKYYNAMK [SCN5A_Y1494]', 'SH2 binding enrichment', 1.25),
  ('TVEDHYFEGGI [TKT_Y563_YF]', 'SH2 binding enrichment', 0.814);

Let us move to another entry and its SH2 binding enrichment.
# query: SH2 binding enrichment of entry CDDGKYVFVVT [RPS6KA3_Y488_Y483C_YF]
0.59
